# reported remaining activity at 3 µM; entries follow
- study.system: GluN1/GluN3A receptors (UniProt Q05586+Q9R1M7)
- Sequence (Q9R1M7 24-1135, other chains not shown): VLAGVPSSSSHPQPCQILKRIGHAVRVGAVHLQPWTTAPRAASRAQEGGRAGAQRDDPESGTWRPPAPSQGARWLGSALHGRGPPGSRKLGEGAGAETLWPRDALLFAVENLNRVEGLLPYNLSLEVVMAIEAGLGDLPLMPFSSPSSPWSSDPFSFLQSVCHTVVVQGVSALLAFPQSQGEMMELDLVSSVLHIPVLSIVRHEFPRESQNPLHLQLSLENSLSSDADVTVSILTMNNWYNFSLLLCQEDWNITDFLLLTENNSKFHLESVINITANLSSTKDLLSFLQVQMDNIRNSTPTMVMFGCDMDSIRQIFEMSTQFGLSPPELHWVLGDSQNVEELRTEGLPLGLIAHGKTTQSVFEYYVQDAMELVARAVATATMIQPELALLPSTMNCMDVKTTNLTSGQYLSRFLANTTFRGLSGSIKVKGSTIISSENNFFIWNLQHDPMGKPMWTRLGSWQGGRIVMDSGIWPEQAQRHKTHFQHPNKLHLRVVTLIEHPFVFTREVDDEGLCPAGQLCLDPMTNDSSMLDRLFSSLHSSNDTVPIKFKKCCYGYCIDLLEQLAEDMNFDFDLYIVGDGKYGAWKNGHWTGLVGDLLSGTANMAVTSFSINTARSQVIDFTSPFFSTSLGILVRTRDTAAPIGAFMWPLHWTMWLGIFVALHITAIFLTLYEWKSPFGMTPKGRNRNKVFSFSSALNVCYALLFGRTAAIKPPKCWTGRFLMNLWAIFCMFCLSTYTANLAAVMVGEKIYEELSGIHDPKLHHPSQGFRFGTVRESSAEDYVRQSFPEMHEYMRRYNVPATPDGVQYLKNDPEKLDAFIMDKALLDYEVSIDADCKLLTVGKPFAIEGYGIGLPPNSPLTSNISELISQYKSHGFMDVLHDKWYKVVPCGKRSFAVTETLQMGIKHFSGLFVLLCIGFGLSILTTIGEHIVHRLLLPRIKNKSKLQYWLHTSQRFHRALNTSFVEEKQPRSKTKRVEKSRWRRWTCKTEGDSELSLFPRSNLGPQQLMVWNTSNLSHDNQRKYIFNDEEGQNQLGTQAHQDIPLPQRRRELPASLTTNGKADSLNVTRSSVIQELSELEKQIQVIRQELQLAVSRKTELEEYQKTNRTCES
- experimental.protocol: Whole-cell patch-clamp recording on GluN1/GluN3A Flp-in T-REx 293 stable cell lines
- Format: cell-based, human GluN1-1a, rat GluN3A
- Design: expressed in transfected cells
- protocol.conditions: Flp-In-T-REx-293; read-out: I drug/I control
- Description: To establish GluN1/GluN3A stable cell lines, the human GluN1-1a (GenBank: NP_015566.1) and the rat GluN3A (GenBank: NP_612555.1) genes were subcloned into the pcDNA5-FRT-To and pcDNA3.1 vectors, respectively. […] Patch-clamp data were processed using Clampfit 10.4 (Molecular Device, Sunnyvale, CA, United States) and analyzed with GraphPad Prism 5.0 (GraphPad Software, San Diego, CA, United States). […]
Dear colleague, please return just the value in %, with no unit written.

NC(=O)N1CCC(CC(=O)N2CCC([C@H]3c4ncc(Br)cc4CCc4cc(Cl)cc(Br)c43)CC2)CC1
98

// query Give its remaining activity at 3 µM value. Item: CC(C)(O)CC(=O)NCCn1ccc2ncnc(Nc3ccc(Oc4cccc(C(F)(F)F)c4)c(Cl)c3)c21
// result 92

// query And for COc1cc(OC)c(C=C2C(O)=Nc3ccccc32)c(OC)c1 ?
// result 88

// query Follow-up item: Nc1n[n+]([O-])c2ccccc2[n+]1[O-]
// result 103

// query Consider next the molecule Cc1[nH]c(/C=C2\C(=O)Nc3ccccc32)c(C)c1CCC(=O)O in the same way.
// result 89

// query Repeat with O=C(Oc1cccc(F)c1OC(=O)c1cccc(O)c1)c1cccc(O)c1
// result 8

// query How about CC(C)c1cc(C(C)C)c(CC(=O)NS(=O)(=O)Oc2c(C(C)C)cccc2C(C)C)c(C(C)C)c1 ?
// result 86

// query Do the same for Oc1ccc(-c2nc3cc(O)cc(Br)c3o2)cc1 please
// result 53

// query Moving on to the next molecule: CNc1nc(-c2ccc3c(N)n[nH]c3c2)cc(N2C[C@@H](C(=O)NC3CCCCC3)CC[C@H]2C)n1
// result 84

// query And the next one, O=C(O)c1cc(O)c2c(c1)C(=O)c1cccc(O)c1C2=O ?
// result 80

// query Input Cc1ccc(CN(Cc2ccc(-c3ccccc3S(=O)(=O)NC#N)cc2)C(=O)c2ccccc2Cl)cc1
// result 48

---

- study.system: GluN1/GluN3A receptors (UniProt Q05586+Q9R1M7)
- experimental.protocol: Whole-cell patch-clamp recording on GluN1/GluN3A Flp-in T-REx 293 stable cell lines
- Assay type: cell-based, human GluN1-1a, rat GluN3A
- Design: expressed in transfected cells
- protocol.conditions: 10 μM glycine
readout.name: IC50 (nM)
Enter your answer as a number in nM; do not include the unit.

// query What value of measured IC50 is listed for O=C(Oc1cccc(F)c1OC(=O)c1cccc(O)c1)c1cccc(O)c1 ?
// result 1080
